# Test system: PPARg:RXRa DBDmut IVT, anti-RXR (DBD mutation: RXRa K156A/R161A, NR concentration 270 nM, RXRa partner concentration 90 nM)
# Assay Remarks: PBM binding z-score (relative to random genomic background probes); higher = stronger binding; sequences stand for … in GC…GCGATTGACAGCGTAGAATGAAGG
Metric: PBM binding z-score

Can you give me PBM binding z-score for all of these, one by one?
1. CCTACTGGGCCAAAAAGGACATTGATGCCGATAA
2. ATCGAAAGGCCGAAGGTGAGTATACCCACCCGAA
3. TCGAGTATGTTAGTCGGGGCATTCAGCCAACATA
4. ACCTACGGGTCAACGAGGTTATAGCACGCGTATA
5. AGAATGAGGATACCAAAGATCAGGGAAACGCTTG

**A:**
1: 3.5; 2: -0.869; 3: 0.962; 4: 1.41; 5: 0.148

Can you give me PBM binding z-score for all of these, one by one?
1. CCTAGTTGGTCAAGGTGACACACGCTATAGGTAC
2. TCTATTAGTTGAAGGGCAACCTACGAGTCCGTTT
3. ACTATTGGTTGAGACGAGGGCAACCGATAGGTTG
4. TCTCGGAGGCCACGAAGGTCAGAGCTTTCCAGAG
5. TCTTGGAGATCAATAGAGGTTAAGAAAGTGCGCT
6. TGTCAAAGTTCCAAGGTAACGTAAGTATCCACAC
7. TCTTGTAGAGCAGCAGGTTAAGAAAGCTGGCCAA

**A:**
1.63
2.23
-0.0898
1.55
0.87
-0.29
1.09

----------
I'd be grateful if you could share measured PBM binding z-score for these entries.
# System: PPARa:RXRa (NR concentration 270 nM, RXRa partner concentration 90 nM)
# Assay Remarks: PBM binding z-score (relative to random genomic background probes); higher = stronger binding; sequences stand for … in GC…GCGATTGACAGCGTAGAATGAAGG
One number for each entry.

Examples from the recorded data:
[
  {
    "Query Sequence": "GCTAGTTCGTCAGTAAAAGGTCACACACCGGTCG",
    "PBM binding z-score": 4.56
  },
  {
    "Query Sequence": "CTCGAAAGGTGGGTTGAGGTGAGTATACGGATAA",
    "PBM binding z-score": 1.22
  },
  {
    "Query Sequence": "ATCTCTAGGTAAAAGTTCTGTGAATCCCGAGGAT",
    "PBM binding z-score": 1.52
  },
  {
    "Query Sequence": "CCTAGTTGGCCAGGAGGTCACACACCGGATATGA",
    "PBM binding z-score": 4.15
  }
]

Can you give me PBM binding z-score for all of these, one by one?
1. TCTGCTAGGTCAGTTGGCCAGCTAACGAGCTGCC
2. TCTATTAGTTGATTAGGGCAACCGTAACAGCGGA

**A:**
1.2
1.05

----------
# Tested on: RARa:RXR (NR concentration 270 nM, RXRa partner concentration 90 nM)
# Assay Remarks: PBM binding z-score (relative to random genomic background probes); higher = stronger binding; sequences stand for … in GC…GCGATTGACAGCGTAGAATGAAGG
Output Yes for PBM binding z-score not less than 4; output No otherwise.

[
  {
    "Query Sequence": "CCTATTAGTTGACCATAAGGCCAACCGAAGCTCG",
    "Answer Label": "No"
  },
  {
    "Query Sequence": "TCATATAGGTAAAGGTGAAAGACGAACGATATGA",
    "Answer Label": "No"
  },
  {
    "Query Sequence": "ATACGTAGGTTAAGGGTCATTCAGGTTGGTTCGC",
    "Answer Label": "Yes"
  }
]

**Q:** State whether the measured PBM binding z-score reaches 4, counting equality as reaching it, for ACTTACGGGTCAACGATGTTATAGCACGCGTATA
**A:** Yes

**Q:** State whether the measured PBM binding z-score reaches 4, counting equality as reaching it, for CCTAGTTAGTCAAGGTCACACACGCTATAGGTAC
**A:** Yes

All values here come from the supplement of paper PMC6555819.
